meta.source: ChEMBL document CHEMBL1201862

tested on: UACC-62; assay: NCI tumour cell line growth inhibition, 48 h
Activity calls are given as the source filed them. Rule as the data show it: active = GI50 up to about 1.1 µM and inactive = higher.
Measured parameter: GI50

- Compound: "CC(C)(C)C(=O)Nc1cccc(-c2ccc[nH]2)n1"
  Tested system: "UACC-62"
  Test result: "86.9 µM (inactive)"
- Compound: "CCOC(=O)NC(OC)(C(F)(F)F)C(F)(F)F"
  Tested system: "UACC-62"
  Test result: "> 100 µM (inactive)"
- Compound: "COc1ccc(N)c(C(O)CCNC(C)=O)c1 (stereo not given)"
  Tested system: "UACC-62"
  Test result: "> 100 µM (inactive)"
- Compound: "CCOC(=O)/C=C(\\C(=O)OCC)n1cc(Cl)c(=O)n(CC(=O)OCC)c1=O"
  Tested system: "UACC-62"
  Test result: "10.9 µM (inactive)"
- Compound: "CC(=O)O[C@]1(C)CCC2C(C)C(=O)OC2C2C(C)[C@@H](O)CC21 (stereo not given in full)"
  Tested system: "UACC-62"
  Test result: "33.9 µM (inactive)"
- Compound: "c1ccc(N2N=NC3C4CC(C5c6ccccc6C45)C32)cc1 (stereo not given)"
  Tested system: "UACC-62"
  Test result: "28.1 µM (inactive)"
- Compound: "Nc1ccc(C(=O)NN2C(=O)C(Cl)C2c2cc(Br)ccc2O)cc1 (stereo not given)"
  Tested system: "UACC-62"
  Test result: "> 100 µM (inactive)"
- Compound: "O=C(O)c1ccccc1/C=C1\\Cc2ccc3c(c2C1=O)CCCC3"
  Tested system: "UACC-62"
  Test result: "21.1 µM (inactive)"
- Compound: "COc1cc2nc(-c3cccs3)nc(N3C(c4ccc(O)cc4)=NNC(=O)c4ccccc43)c2cc1OC"
  Tested system: "UACC-62"
  Test result: "20.5 µM (inactive)"
- Compound: "CN(C)c1ccc(/C=C/C(=O)N[C@@H]2C(=O)N3[C@@H]2SC(C)(C)[C@@H]3C(=O)O)cc1"
  Tested system: "UACC-62"
  Test result: "> 100 µM (inactive)"

---

Readings of GI50 for the listed molecules
system: SNB-78; experiment: NCI tumour cell line growth inhibition, 48 h
The source made the active and inactive calls. Cut-off read from the data, not from the text of the source: active = GI50 up to about 1.1 µM and inactive = higher.

- Molecule: "CC(CCC(=O)O)c1ccc(Br)cc1 (configuration not stated)"
  GI50: "> 100 µM (inactive)"
- Molecule: "O=C1COc2cc3c(cc2N1)SCC(=O)N3"
  GI50: "> 100 µM (inactive)"
- Molecule: "CC[C@@]1(O)C(=O)OCc2c1cc1n(c2=O)Cc2cc3cc4c(cc3nc2-1)OCO4"
  GI50: "0.376 µM (active)"
- Molecule: "Nc1ccc(C(=O)NN2C(=O)C(Cl)C2c2cc(Br)ccc2O)cc1 (configuration not stated)"
  GI50: "> 100 µM (inactive)"
- Molecule: "CCOC(=O)C(=O)Nc1cccc(C)c1C"
  GI50: "> 100 µM (inactive)"
- Molecule: "CNC1=C(C)C(=O)C(C)=C(C(C)(C)CC(=O)n2cc(F)c(=O)[nH]c2=O)C1=O"
  GI50: "> 100 µM (inactive)"
- Molecule: "CCCCC(N)CSSCC(N)CCCC (configuration not stated)"
  GI50: "32.7 µM (inactive)"
- Molecule: "CCCc1nc(N)nc(C(=O)Nc2cccc(C(F)(F)F)c2)c1CC"
  GI50: "> 100 µM (inactive)"
- Molecule: "CCCCCCCCCCCCCc1nnn[nH]1"
  GI50: "21.4 µM (inactive)"
- Molecule: "COC(=O)/C=C/C(=O)C1C(C(=O)OC)C2(C(=O)OC)CCC1(C(=O)OC)N2 (configuration not stated)"
  GI50: "> 100 µM (inactive)"
- Molecule: "COc1cc(Cc2nccc3cc(OC)c(OC)cc23)c(C(C)=O)cc1OC"
  GI50: "74.6 µM (inactive)"
- Molecule: "O=c1[nH]n2c(=O)cc[nH]c2c1-c1nnns1"
  GI50: "> 100 µM (inactive)"

---

system: OVCAR-8; experiment: NCI tumour cell line growth inhibition, 48 h
Active and inactive are the calls of the source. Cut-off read from the data, not from the text of the source: active = GI50 up to about 1.1 µM and inactive = higher.
Outcomes: 1.0 for active, 0.0 for inactive

- Compound: "CCOC(=O)c1oc2c(OC)cc(Cl)c3c2c1CCC3"
  Category label: 0.0
- Compound: "Clc1sc(Cl)c2c1[C@@H](Cl)C[C@@H]2Cl"
  Category label: 0.0
- Compound: "COc1ccc2c(c1OCC(=O)O)C(=O)C(CCC(=O)O)CC2 (stereo unspecified)"
  Category label: 0.0
- Compound: "Cc1ccc(O)c(C2=CC3=NNC(=O)C3C(c3cccc(Br)c3)C2)c1 (stereo unspecified)"
  Category label: 0.0
- Compound: "COCCc1c(C)c(C#N)c2n(C)c3ccccc3n2c1=O"
  Category label: 0.0
- Compound: "COc1ccc(C(C)NNC(=O)c2cc[n+]([BH2-]C#N)cc2)cc1OC (stereo unspecified)"
  Category label: 0.0
- Compound: "CCOc1ccccc1/N=N/C1C(=O)N(C(=O)CC(=O)Nc2ccccc2C)N=C1C (stereo unspecified)"
  Category label: 0.0
- Compound: "Cc1c2ccnc(C(=O)NCCN(C)C)c2cc2c3cc(O)ccc3n(C)c12"
  Category label: 1.0
- Compound: "COC(=O)NC1(NC(=O)OC)NC(=O)c2ccccc2N1"
  Category label: 0.0
- Compound: "c1ccc(B2OCC(C3OB(c4ccccc4)OC4COB(c5ccccc5)OC43)O2)cc1 (stereo unspecified)"
  Category label: 0.0
- Compound: "CC(C)(O)C1CC[C@]2(C)[C@H]3CC[C@@H]4[C@@]5(C)CCCC(C)(C)[C@@H]5CC[C@@]4(C)[C@]3(C)CC[C@@H]12 (stereo partly specified)"
  Category label: 0.0
- Compound: "CC1(C)OCC(C2CCC3(C)C4=CCC5C(C)(C)C(O)CCC5(C)C4CCC23C)CC(O)C1O (stereo unspecified)"
  Category label: 0.0
- Compound: "Cc1ccc(S(=O)(=O)OC2C(O)C(O)OC2C(c2cc(O)c3c(c2O)C(=O)c2ccccc2C3=O)c2cc(O)c3c(c2O)C(=O)c2ccccc2C3=O)cc1 (stereo unspecified)"
  Category label: 0.0
- Compound: "O=C1C(c2ccc([N+](=O)[O-])cc2)=[N+]([O-])c2ccc([N+](=O)[O-])cc21"
  Category label: 0.0
- Compound: "Nc1ncc2c(n1)-c1ccccc1OC2N1CCCC1 (stereo unspecified)"
  Category label: 0.0
- Compound: "CN1C(=O)CC2(C)c3cc(O)ccc3N(C)C12 (stereo unspecified)"
  Category label: 0.0
- Compound: "CC(C)(C)OC(=O)NCC(=O)OCc1ccccc1"
  Category label: 0.0
- Compound: "CN(C)/N=N/c1ccc([N+](=O)[O-])cc1C(N)=O"
  Category label: 0.0
- Compound: "CCOC(=O)NN(C(=O)OCC)C(=C(C1=CCCCC1)N1CCOCC1)N(NC(=O)OCC)C(=O)OCC"
  Category label: 0.0
- Compound: "Cc1ccc(S(=O)(=O)c2ccc(N)cc2)cc1"
  Category label: 0.0
- Compound: "O=C(O)CCNS(=O)(=O)c1ccc2ccccc2c1"
  Category label: 0.0

---

Listed next: entries and their corresponding GI50.
tested on: U-251; assay: NCI tumour cell line growth inhibition, 48 h
The source made the active and inactive calls. Cut-off read from the data, not from the text of the source: active = GI50 up to about 1.1 µM and inactive = higher.
Measured parameter: GI50

- Compound: "CCN(CC)c1oc(N(CC)CC)c(C(=O)Nc2ccccn2)c(=O)c1C(C)=O"
  Test result: "> 100 µM (inactive)"
- Compound: "COC1CC(OC2CCC3(C)C(=CCC4C3C(OC(C)=O)C(OC(=O)CC(C)C)C3(C)C(C(C)=O)CCC43O)C2)OC(C)C1OC1CC(OC)C(OC2CC(OC)C(OC3OC(C)C(O)C(OC)C3O)C(C)O2)C(C)O1 (stereo not given)"
  Test result: "37.8 µM (inactive)"
- Compound: "COc1ccc(C2C(C(=O)O)=C(COC(C)=O)Oc3cc4c(cc32)OCO4)c(OC)c1 (stereo not given)"
  Test result: "> 100 µM (inactive)"
- Compound: "CC(C)(C)OC(=O)NC1CCCC1=O (stereo not given)"
  Test result: "> 100 µM (inactive)"
- Compound: "CC(C)c1cccc(C(C)C)c1OS(=O)(=O)NC(=O)OC(C(F)(F)F)C(F)(F)F"
  Test result: "43.7 µM (inactive)"
- Compound: "C[N+]1(CCC(=O)c2ccccc2)CCC2CCC(C2)C1 (stereo not given)"
  Test result: "> 100 µM (inactive)"
- Compound: "O=C(Nc1cccc2ccccc12)Nn1cnnc1"
  Test result: "> 100 µM (inactive)"
- Compound: "Nc1nc(Nc2cc(F)c(Cl)c(F)c2)cc(=O)[nH]1"
  Test result: "81.7 µM (inactive)"
- Compound: "[N-]=[N+]=CC(=O)OCC1SCCCS1"
  Test result: "> 100 µM (inactive)"
- Compound: "COCCc1c(C)c(C#N)c2n(C)c3ccccc3n2c1=O"
  Test result: "> 10 µM (inactive)"
